test_system: UniProt:P08631
Sequence (P08631 22-526): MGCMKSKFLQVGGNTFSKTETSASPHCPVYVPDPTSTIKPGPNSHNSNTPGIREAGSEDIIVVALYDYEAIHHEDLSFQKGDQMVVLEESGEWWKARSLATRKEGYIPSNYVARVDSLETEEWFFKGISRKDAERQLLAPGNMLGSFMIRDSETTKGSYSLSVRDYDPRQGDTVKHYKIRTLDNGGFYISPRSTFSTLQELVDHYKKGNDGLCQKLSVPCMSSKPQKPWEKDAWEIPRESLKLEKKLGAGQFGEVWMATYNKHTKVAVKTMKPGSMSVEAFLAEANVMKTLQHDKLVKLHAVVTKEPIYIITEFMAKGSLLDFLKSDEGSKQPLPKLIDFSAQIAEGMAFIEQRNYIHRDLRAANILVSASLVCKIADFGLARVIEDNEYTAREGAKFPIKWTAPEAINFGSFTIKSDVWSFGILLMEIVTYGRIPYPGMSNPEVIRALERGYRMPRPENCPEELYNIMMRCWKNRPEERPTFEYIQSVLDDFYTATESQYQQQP
pIC50: −log10 of the molar value.
assay_metric: pIC50

| molecule | assay_metric | value_measured |
| --- | --- | --- |
| Cc1ccc(-n2nc(C(C)(C)C)cc2NC(=O)Nc2ccc(OCc3ccnc(Nc4cnccn4)c3)c3ccccc23)s1 [Example 13] | pIC50 | 7.31 |
| CC(C)c1ccc(-n2nc(C(C)(C)C)cc2NC(=O)Nc2ccc(OCc3ccnc(Nc4cnccn4)c3)c3ccccc23)cc1 [Example 41] | pIC50 | 5.85 |
| CC(C)(C)c1cc(NC(=O)Nc2ccc(OCc3ccnc(Nc4cnccn4)c3)c3ccccc23)n(-c2cccc(F)c2)n1 [Example 49] | pIC50 | 6.94 |
| Cc1ccc(-n2nc(C(C)(C)C)cc2NC(=O)Nc2ccc(OCc3ccnc(Nc4cnc(C(=O)N5CCCC5)cn4)c3)c3ccccc23)cc1 [Example 36] | pIC50 | 7.32 |
| Cc1ccc(-n2nc(C(C)(C)C)cc2NC(=O)Nc2ccc(OCc3ccnc(Nc4cnc(C)cn4)c3)c3ccccc23)cc1 [Example 19] | pIC50 | 7.28 |
| Cc1ccc(-n2nc(C(C)(C)C)cc2NC(=O)Nc2ccc(OCc3ccnc(Nc4cnc(C(=O)N(C)C)cn4)c3)c3ccccc23)cc1 [Example 9] | pIC50 | 5.82 |
| Cc1ccc(-n2nc(C(C)(C)C)cc2NC(=O)Nc2ccc(OCc3ccnc(Nc4cnc(C(=O)N5CCOCC5)cn4)c3)c3ccccc23)cc1 [Example 35] | pIC50 | 7.38 |
| Cc1ccc(-n2nc(C(C)(C)C)cc2NC(=O)Nc2ccc(OCc3ccnc(Nc4cnccn4)c3)c3ccccc23)cc1C [Example 51] | pIC50 | 7.44 |
| Cc1ccc(-n2nc(C(C)(C)C)cc2NC(=O)Nc2ccc(OCc3ccnc(Nc4cnc(C5CC5)cn4)c3)c3ccccc23)cc1 [Example 16] | pIC50 | 6.45 |
| COCCNC(=O)c1cnc(Nc2cc(COc3ccc(NC(=O)Nc4cc(C(C)(C)C)nn4-c4ccc(C)s4)c4ccccc34)ccn2)cn1 [Example 43] | pIC50 | 7.28 |
| COc1ccc(-n2nc(C(C)(C)C)cc2NC(=O)Nc2ccc(OCc3ccnc(Nc4cncc(C5CC5)n4)c3)c3ccccc23)cc1 [Example 22] | pIC50 | 7.85 |
| CC(C)(C)c1cc(NC(=O)Nc2ccc(OCc3ccnc(Nc4cncc(C5CC5)n4)c3)c3ccccc23)n(-c2ccc(CO)cc2)n1 [Example 25] | pIC50 | 8.30 |
| CNC(=O)c1cnc(Nc2cc(COc3ccc(NC(=O)Nc4cc(C(C)(C)C)nn4-c4ccc(C)cc4)c4ccccc34)ccn2)cn1 [Example 7] | pIC50 | 7.19 |
| Cc1ccc(-n2nc(C(C)(C)C)cc2NC(=O)Nc2ccc(OCc3ccnc(Nc4cncc(C5CCCC5)n4)c3)c3ccccc23)cc1 [Example 48] | pIC50 | 6.88 |
| Cc1ccc(-n2nc(C(C)(C)C)cc2NC(=O)Nc2ccc(OCc3ccnc(Nc4cncc(CO)n4)c3)c3ccccc23)cc1 [Example 21] | pIC50 | 7.92 |
| Cc1cc(-n2nc(C(C)(C)C)cc2NC(=O)Nc2ccc(OCc3ccnc(Nc4cnccn4)c3)c3ccccc23)cs1 (single isomer, unassigned) [Example 31] | pIC50 | 7.23 |
| COCCNC(=O)c1cnc(Nc2cc(COc3ccc(NC(=O)Nc4cc(C(C)(C)C)nn4-c4csc(C)c4)c4ccccc34)ccn2)cn1 [Example 44] | pIC50 | 7.24 |
| CC(C)(C)c1cc(NC(=O)Nc2ccc(OCc3ccnc(Nc4cnccn4)c3)c3ccccc23)n(-c2cccc(Cl)c2)n1 [Example 50] | pIC50 | 6.95 |
| COc1ccc(-n2nc(C(C)(C)C)cc2NC(=O)Nc2ccc(OCc3ccnc(Nc4cnccn4)c3)c3ccccc23)cc1 [Example 38] | pIC50 | 7.22 |
| Cc1ccc(-n2nc(C(C)(C)C)cc2NC(=O)Nc2ccc(OCc3ccnc(Nc4cncc(CC(N)=O)n4)c3)c3ccccc23)cc1 [Example 32] | pIC50 | 8.15 |
| COc1ccc(-n2nc(C(C)(C)C)cc2NC(=O)Nc2ccc(OCc3ccnc(Nc4cnccn4)c3)c3ccccc23)cn1 [Example 12] | pIC50 | 7.41 |
| Cc1ccc(-n2nc(C(C)(C)C)cc2NC(=O)Nc2ccc(OCc3ccnc(Nc4cncc(N(C)C)n4)c3)c3ccccc23)cc1 [Example 14] | pIC50 | 8.22 |
| Cc1ccc(-n2nc(C(C)(C)C)cc2NC(=O)Nc2ccc(OCc3ccnc(Nc4cnc(C(=O)NCCN5CCOCC5)cn4)c3)c3ccccc23)cc1 [Example 17] | pIC50 | 7.77 |
| Cc1ccc(-n2nc(C(C)(C)C)cc2NC(=O)Nc2ccc(OCc3ccnc(Nc4cncc(CC(=O)N(C)C)n4)c3)c3ccccc23)cc1 [Example 8] | pIC50 | 8.00 |

Data provenance is patent US11142515B2.
